Molecular target: KIF18a-microtubule complex (Homo sapiens (Human))
Sequence (Q8NI77 1-374, one chain of several): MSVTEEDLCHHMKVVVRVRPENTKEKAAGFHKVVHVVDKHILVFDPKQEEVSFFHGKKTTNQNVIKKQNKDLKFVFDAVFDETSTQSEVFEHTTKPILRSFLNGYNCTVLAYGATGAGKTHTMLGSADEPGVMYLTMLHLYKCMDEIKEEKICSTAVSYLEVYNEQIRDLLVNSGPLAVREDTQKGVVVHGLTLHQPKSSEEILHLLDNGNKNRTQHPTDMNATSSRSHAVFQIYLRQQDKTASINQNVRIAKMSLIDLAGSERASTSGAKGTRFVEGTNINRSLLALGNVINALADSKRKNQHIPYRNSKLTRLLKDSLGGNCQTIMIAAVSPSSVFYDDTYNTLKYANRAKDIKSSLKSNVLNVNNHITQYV
Experiment: Binding kinetics to KIF18a-microtubule complex (global progress curve analysis)
Details: ln(2)/koff
Would you kindly list disc. t1/2 (dissociation half-life ln(2)/koff) for each of these molecules?
Answer with the figure and its unit, nothing else.

- Molecule: "Cc1cc(-c2cn(-c3ccc(NS(=O)(=O)CCO)cc3N3CCCCC3)nn2)nc(N2CCC(F)(F)CC2)c1 [Compound 68]"
  Endpoint value: "11 h"

Hi! Can you tell me disc. t1/2 (dissociation half-life ln(2)/koff) for each of these molecules?
1. CS(=O)(=O)Nc1ccc(-n2cc(-c3cccc(N4CCC(F)(F)CC4)n3)nn2)c(N2CCCCC2)c1 [Compound 15]
2. CS(=O)(=O)Nc1ccc(-c2ncc(-c3cccc(N4CCOCC4)n3)[nH]2)c(N2CCC3(CC2)CC3)c1 [Compound 10]
3. CS(=O)(=O)Nc1ccc(-c2nnc(-c3cccc(N4CCOCC4)n3)[nH]2)c(N2CCC3(CC2)CC3)c1 [Compound 2]

1: 17 h; 2: 2.9 h; 3: 5.5 h
